Cytochrome P450 2D6 (Homo sapiens, UniProt P10635): reported AC50 for various compounds.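 Also: CYP2D6 member of a cytochrome P450 panel assay.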
Sequence (P10635 whole entry): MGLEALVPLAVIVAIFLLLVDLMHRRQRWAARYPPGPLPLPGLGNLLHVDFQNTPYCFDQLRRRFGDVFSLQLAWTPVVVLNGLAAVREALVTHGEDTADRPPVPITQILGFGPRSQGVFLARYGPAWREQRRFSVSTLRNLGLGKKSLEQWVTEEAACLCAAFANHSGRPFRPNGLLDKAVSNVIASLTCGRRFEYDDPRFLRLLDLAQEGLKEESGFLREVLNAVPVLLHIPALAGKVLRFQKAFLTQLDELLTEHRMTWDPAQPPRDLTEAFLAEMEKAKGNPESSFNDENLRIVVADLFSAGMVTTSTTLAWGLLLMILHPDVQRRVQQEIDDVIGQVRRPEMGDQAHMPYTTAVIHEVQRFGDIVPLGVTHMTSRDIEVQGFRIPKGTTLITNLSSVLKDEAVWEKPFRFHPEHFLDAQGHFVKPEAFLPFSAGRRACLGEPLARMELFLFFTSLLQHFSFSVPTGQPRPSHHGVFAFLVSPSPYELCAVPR

> print(dat)
                                   compound      experimental.value
1  CCCCn1nc2cc(C(=O)NCCCCc3ccccc3)ccc2c1OCC  3.98 µM (inconclusive)

Tested on Cytochrome P450 2D6 (Homo sapiens, UniProt P10635), the item CCCC(=O)Nc1ccc(N2CCN(CC)CC2)c(Cl)c1 showed AC50 equal to 20 µM (inconclusive)

Tested on Cytochrome P450 2D6 (Homo sapiens, UniProt P10635), the item Cc1ccc(S(=O)(=O)NC(CC(C)C)C(=O)Oc2ccc3c4c(c(=O)oc3c2)CCC4)cc1 (stereo unspecified) showed AC50 equal to 15.8 µM (inconclusive)

Tested on Cytochrome P450 2D6 (Homo sapiens, UniProt P10635), the item Cc1cnc(CNc2ncnc3ccc(-c4cccc(NS(C)(=O)=O)c4)cc23)cn1 showed AC50 equal to 25.1 µM (inconclusive)

Tested on Cytochrome P450 2D6 (Homo sapiens, UniProt P10635), the item CC1CCCC(C)N1C(=O)c1ccccc1Nc1ccc(SC(F)F)cc1 (stereo unspecified) showed AC50 equal to 0.631 µM (inconclusive)

Tested on Cytochrome P450 2D6 (Homo sapiens, UniProt P10635), the item OC(c1ccccc1)(c1ccccc1)C1CCNCC1 [AZACYCLONOL] showed AC50 equal to 15.8 µM (inconclusive)

Tested on Cytochrome P450 2D6 (Homo sapiens, UniProt P10635), the item CN(C)Cc1ccccc1-c1cncnc1NC1CC1 showed AC50 equal to 25.1 µM (inconclusive)

Tested on Cytochrome P450 2D6 (Homo sapiens, UniProt P10635), the item CCCOc1ccc(C(=O)OCCN(CC)CC)cc1N [PROPARACAINE] showed AC50 equal to 6.31 µM (inconclusive)

Tested on Cytochrome P450 2D6 (Homo sapiens, UniProt P10635), the item CC(=O)NCCc1c[nH]c2ccc(O)cc12 [ACETYLSEROTONIN] showed AC50 equal to 15.8 µM (inconclusive)

Tested on Cytochrome P450 2D6 (Homo sapiens, UniProt P10635), the item Cc1ccccc1-c1nc(C[S+]([O-])CC(=O)NCCCN(C)c2ccccc2)c(C)o1 (stereo unspecified) showed AC50 equal to 25.1 µM (inconclusive)

Tested on Cytochrome P450 2D6 (Homo sapiens, UniProt P10635), the item Cc1nn(Cc2c(F)c(F)c(F)c(F)c2F)c(C)c1NC(=O)c1cccc(COc2ccccc2Cl)c1 showed AC50 equal to 0.794 µM (inconclusive)

The reported measurements were obtained from ChEMBL document CHEMBL1201862.
